tested on: 454973-116-R2-J3-PDC spheroids, percent test/control viability; assay: Anticancer human tumor 454973-116-R2-J3-PDC patient-derived pancreatic carcinoma cell line growth inhibition [CLK]; conditions: second compound 0.0316 µM; first compound 1 µM; spheroids with HUVEC and MSC; active = viability on the fitted dose curve at most 10% of control; inactive = the rest
Outcomes: active, inactive

Molecule | Category label
C=C(F)C(=O)N1CCN(c2nc(OCC3CCCN3C)nc3c2CCN(c2cccc4cccc(Cl)c24)C3)CC1CC#N (stereo not drawn) + CN1CCN(c2cc(C(=O)Nc3cc4cc(-c5cnn(C)c5)ccc4cn3)ccn2)CC1 | inactive
O=C(c1cc(Cc2n[nH]c(=O)c3ccccc23)ccc1F)N1CCN(C(=O)C2CC2)CC1 + CN1CCN(c2cc(C(=O)Nc3cc4cc(-c5cnn(C)c5)ccc4cn3)ccn2)CC1 | inactive
CCN1CCN(Cc2ccc(Nc3ncc(F)c(-c4cc(F)c5nc(C)n(C(C)C)c5c4)n3)nc2)CC1 + CNC(=O)c1ccc(Nc2nc(OC3CCCC3)c3c(-c4ccc5nc(C)oc5c4)c[nH]c3n2)c(OC)c1 | inactive
CCc1c2c(nc3ccc(O)cc13)-c1cc3c(c(=O)n1C2)COC(=O)[C@]3(O)CC + CNC(=O)c1ccc(Nc2nc(OC3CCCC3)c3c(-c4ccc5nc(C)oc5c4)c[nH]c3n2)c(OC)c1 | active
C=C(F)C(=O)N1CCN(c2nc(OCC3CCCN3C)nc3c2CCN(c2cccc4cccc(Cl)c24)C3)CC1CC#N (stereo not drawn) + CNC(=O)c1ccc(Nc2nc(OC3CCCC3)c3c(-c4ccc5nc(C)oc5c4)c[nH]c3n2)c(OC)c1 | inactive
COc1ccc([C@@H](O)c2cc(-c3ncnc4cc(N5CCOCC5)ccc34)c(F)cc2Cl)nn1 + CN1CCN(c2cc(C(=O)Nc3cc4cc(-c5cnn(C)c5)ccc4cn3)ccn2)CC1 | inactive
CCCS(=O)(=O)Nc1ccc(F)c(C(=O)c2c[nH]c3ncc(-c4ccc(Cl)cc4)cc23)c1F + CNC(=O)c1ccc(Nc2nc(OC3CCCC3)c3c(-c4ccc5nc(C)oc5c4)c[nH]c3n2)c(OC)c1 | inactive
C=CC(=O)N1CCN(c2nc(=O)n(-c3c(C)ccnc3C(C)C)c3nc(-c4c(O)cccc4F)c(F)cc23)C(C)C1 (stereo not drawn) + CNC(=O)c1ccc(Nc2nc(OC3CCCC3)c3c(-c4ccc5nc(C)oc5c4)c[nH]c3n2)c(OC)c1 | inactive

* * *

test system: 454973-116-R2-J3-PDC spheroids, percent test/control viability; test: Anticancer human tumor 454973-116-R2-J3-PDC cell line growth inhibition [CLK]; settings: second compound 0.0316 µM; first compound 10 µM; active compounds read low; spheroids with HUVEC and MSC;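 note: spheroids exposed to compounds for 7 days before readout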
Rule: viability, T/C below 30% gives y, anything at or above gives n.

Compound | Category label
CC(=O)O[C@H]1C(=O)[C@@]2(C)[C@H]([C@H](OC(=O)c3ccccc3)[C@]3(O)C[C@H](OC(=O)[C@H](O)[C@@H](NC(=O)c4ccccc4)c4ccccc4)C(C)=C1C3(C)C)[C@]1(OC(C)=O)CO[C@@H]1C[C@@H]2O + CN1CCN(c2cc(C(=O)Nc3cc4cc(-c5cnn(C)c5)ccc4cn3)ccn2)CC1 | y
COc1ccc([C@@H](O)c2cc(-c3ncnc4cc(N5CCOCC5)ccc34)c(F)cc2Cl)nn1 + CN1CCN(c2cc(C(=O)Nc3cc4cc(-c5cnn(C)c5)ccc4cn3)ccn2)CC1 | n
Nc1ccn(C2OC(CO)C(O)C2(F)F)c(=O)n1 (stereo not given) + CN1CCN(c2cc(C(=O)Nc3cc4cc(-c5cnn(C)c5)ccc4cn3)ccn2)CC1 | y
O=c1[nH]cc(F)c(=O)[nH]1 + CN1CCN(c2cc(C(=O)Nc3cc4cc(-c5cnn(C)c5)ccc4cn3)ccn2)CC1 | n
C#Cc1c(F)ccc2cc(O)cc(-c3ncc4c(N5CC6CCC(C5)N6)nc(OCC56CCCN5CC(F)C6)nc4c3F)c12 (stereo not given) + CNC(=O)c1ccc(Nc2nc(OC3CCCC3)c3c(-c4ccc5nc(C)oc5c4)c[nH]c3n2)c(OC)c1 | y
O=c1[nH]cc(F)c(=O)[nH]1 + CNC(=O)c1ccc(Nc2nc(OC3CCCC3)c3c(-c4ccc5nc(C)oc5c4)c[nH]c3n2)c(OC)c1 | n
CC(Nc1ccc2c(c1)OCCn1cc(N3C(=O)OCC3C(F)F)nc1-2)C(N)=O (stereo not given) + CNC(=O)c1ccc(Nc2nc(OC3CCCC3)c3c(-c4ccc5nc(C)oc5c4)c[nH]c3n2)c(OC)c1 | n
O=C(c1cc(Cc2n[nH]c(=O)c3ccccc23)ccc1F)N1CCN(C(=O)C2CC2)CC1 + CNC(=O)c1ccc(Nc2nc(OC3CCCC3)c3c(-c4ccc5nc(C)oc5c4)c[nH]c3n2)c(OC)c1 | n
COc1ccc([C@@H](O)c2cc(-c3ncnc4cc(N5CCOCC5)ccc34)c(F)cc2Cl)nn1 + CNC(=O)c1ccc(Nc2nc(OC3CCCC3)c3c(-c4ccc5nc(C)oc5c4)c[nH]c3n2)c(OC)c1 | n
C=CC(=O)N1CCN(c2nc(=O)n(-c3c(C)ccnc3C(C)C)c3nc(-c4c(O)cccc4F)c(F)cc23)C(C)C1 (stereo not given) + CNC(=O)c1ccc(Nc2nc(OC3CCCC3)c3c(-c4ccc5nc(C)oc5c4)c[nH]c3n2)c(OC)c1 | n
CC1COCCN1c1cc(C2(S(C)(=N)=O)CC2)nc(-c2ccnc3[nH]ccc23)n1 (stereo not given) + CN1CCN(c2cc(C(=O)Nc3cc4cc(-c5cnn(C)c5)ccc4cn3)ccn2)CC1 | n
CC(=O)O[C@H]1C(=O)[C@@]2(C)[C@H]([C@H](OC(=O)c3ccccc3)[C@]3(O)C[C@H](OC(=O)[C@H](O)[C@@H](NC(=O)c4ccccc4)c4ccccc4)C(C)=C1C3(C)C)[C@]1(OC(C)=O)CO[C@@H]1C[C@@H]2O + CNC(=O)c1ccc(Nc2nc(OC3CCCC3)c3c(-c4ccc5nc(C)oc5c4)c[nH]c3n2)c(OC)c1 | y
O=C(c1cc(Cc2n[nH]c(=O)c3ccccc23)ccc1F)N1CCN(C(=O)C2CC2)CC1 + CN1CCN(c2cc(C(=O)Nc3cc4cc(-c5cnn(C)c5)ccc4cn3)ccn2)CC1 | n
COC1C=CCC(C)C(C)S(=O)(=O)NC(=O)c2ccc3c(c2)N(CC2CCC21)CC1(CCCc2cc(Cl)ccc21)CO3 (stereo not given) + CN1CCN(c2cc(C(=O)Nc3cc4cc(-c5cnn(C)c5)ccc4cn3)ccn2)CC1 | y
C#Cc1c(F)ccc2cc(O)cc(-c3ncc4c(N5CC6CCC(C5)N6)nc(OCC56CCCN5CC(F)C6)nc4c3F)c12 (stereo not given) + CN1CCN(c2cc(C(=O)Nc3cc4cc(-c5cnn(C)c5)ccc4cn3)ccn2)CC1 | y
Nc1ccccc1NC(=O)c1ccc(CNC(=O)OCc2cccnc2)cc1 + CN1CCN(c2cc(C(=O)Nc3cc4cc(-c5cnn(C)c5)ccc4cn3)ccn2)CC1 | y
COC1C=CCC(C)C(C)S(=O)(=O)NC(=O)c2ccc3c(c2)N(CC2CCC21)CC1(CCCc2cc(Cl)ccc21)CO3 (stereo not given) + CNC(=O)c1ccc(Nc2nc(OC3CCCC3)c3c(-c4ccc5nc(C)oc5c4)c[nH]c3n2)c(OC)c1 | y
CC(CO)NC(=O)c1cc(-c2ccc(Cl)cc2)nn(-c2cnn(C)c2)c1=O (stereo not given) + CNC(=O)c1ccc(Nc2nc(OC3CCCC3)c3c(-c4ccc5nc(C)oc5c4)c[nH]c3n2)c(OC)c1 | n
CC1(C)CCC(CN2CCN(c3ccc(C(=O)NS(=O)(=O)c4ccc(NCC5CCOCC5)c([N+](=O)[O-])c4)c(Oc4cnc5[nH]ccc5c4)c3)CC2)=C(c2ccc(Cl)cc2)C1 + CN1CCN(c2cc(C(=O)Nc3cc4cc(-c5cnn(C)c5)ccc4cn3)ccn2)CC1 | y
C=C(F)C(=O)N1CCN(c2nc(OCC3CCCN3C)nc3c2CCN(c2cccc4cccc(Cl)c24)C3)CC1CC#N (stereo not given) + CN1CCN(c2cc(C(=O)Nc3cc4cc(-c5cnn(C)c5)ccc4cn3)ccn2)CC1 | y

Numbers sourced from PubChem BioAssay AID2060618.
